Collected cytotoxicity at 70.5 h values appear next to each entry.
experiment: Human HepG2 cell viability assay in 384 well format; format: toxicity, cell-based; design: dose 125 nL, time 70.5 hour; concentration not given beside the values; details: HepG2 cells, read-out: Inhibition
recorded.endpoint: cytotoxicity at 70.5 h

                                    compound  reported_value
 0  COc1cc(Br)c(CNC2CCCNC2=O)cc1OC (stereo not drawn)        -0.0651%
 1  N#CC1(C(=O)N2C[C@H](Nc3ccnc(N)n3)[C@@H](C3CC3)C2)CCOCC1          -3.81%
 2  CC(C)NC(=O)[C@@H]1CN(Cc2ccc3c(c2)OCO3)C[C@H]2OCC[C@H]21          -2.81%
 3  COC1CCN(S(=O)(=O)N2CCCC2c2ccco2)CC1 (stereo not drawn)          0.386%
 4  Cc1nn(C)c2c(=O)n(CC(=O)NCCC3=CCCCC3)ccc12          -1.87%
 5  Cc1nc(C)n(C2CCCN(C(=O)c3csc(C(C)C)n3)C2)n1 (stereo not drawn)           23.9%
 6  Cc1ncc(-c2ccnc(NCCc3ccc(F)cc3)n2)c(=O)[nH]1          -12.9%
 7      CCc1nc(CN2CCCN(c3ncnc4ccsc34)CC2)no1           8.93%
 8  COc1cccc([C@@]2(O)CC[C@@H]3CN(C(=O)c4c[nH]nc4C)C[C@@H]32)c1          -6.08%
 9  Cc1nc[nH]c1CN1C[C@@H]2CC[C@H](C1)N(C(=O)CCc1cnn(C)c1)C2          -1.54%
10     O=C(Nc1nnn[nH]1)c1ccc(-n2cccc2)c(F)c1          -9.42%
11  Cc1cnn(CCNCC(O)COc2ccc3ccccc3c2)c1 (stereo not drawn)         -0.298%
12  COCCO[C@H]1CCN(C(=O)c2ccco2)[C@H]1Cc1cnn(C)c1          -90.2%
13            O=C(CCc1ccccc1)Nc1ncccc1OC(F)F         -0.101%
14  CCOc1ccc(OC2CCCN(c3cnn(C)c3)C2=O)cc1 (stereo not drawn)           10.6%
15  CNC(=O)[C@H]1C[C@@H]2CN(C(=O)Nc3ccccc3)C[C@H]1O2          -25.2%
16  CC(=O)N1CC(=O)N(c2ccsc2)CC12CCN(Cc1ccoc1)C2 (stereo not drawn)          -11.1%
17  NC(=O)C(Cc1ccccc1)NS(=O)(=O)Cc1ccccc1Cl (stereo not drawn)           7.03%
18  Cc1cc(Nc2nc(C)cs2)nc(C2CCCCN2CCO)n1 (stereo not drawn)           32.4%
19  COCC1CN(C(=O)Cc2cccs2)Cc2nnn(C)c21 (stereo not drawn)          -14.9%
20  Cc1cccnc1CCNC(=O)CC1C(=O)NCCN1CCC(C)C (stereo not drawn)           19.9%
21  CCC(C)(N)c1nc(C(C)C)cc(=O)[nH]1 (stereo not drawn)          -4.71%
22                 CCSc1nnc(N(CCC#N)CCC#N)s1           1.21%
